- Tested on: COLO 205
- Experimental details: NCI60 five-dose screen
- Format: cell-based, human
- Study conditions: COLO 205, colon cancer; read-out: LC50 (the source's name)
Parameter measured: CC50 (nM)
One number for each entry, in nM.

Requested field: CC50. Item: O=C(N/N=C/c1cc(Br)c[nH]1)c1[nH]c2ccc(Br)cc2c1-c1ccccc1 884

====

Answer each item with its documented RFU in tubulin polymerization assay.
- Assay target: porcine brain tubulin (Sus scrofa, UniProt P02550+P02554)
- Construct: a solution containing porcine brain tubulin (2 mg mL^−1); purchased Cytoskeleton BK011P; host or cells: porcine brain (tissue-purified)
- Sequence (P02554 whole entry): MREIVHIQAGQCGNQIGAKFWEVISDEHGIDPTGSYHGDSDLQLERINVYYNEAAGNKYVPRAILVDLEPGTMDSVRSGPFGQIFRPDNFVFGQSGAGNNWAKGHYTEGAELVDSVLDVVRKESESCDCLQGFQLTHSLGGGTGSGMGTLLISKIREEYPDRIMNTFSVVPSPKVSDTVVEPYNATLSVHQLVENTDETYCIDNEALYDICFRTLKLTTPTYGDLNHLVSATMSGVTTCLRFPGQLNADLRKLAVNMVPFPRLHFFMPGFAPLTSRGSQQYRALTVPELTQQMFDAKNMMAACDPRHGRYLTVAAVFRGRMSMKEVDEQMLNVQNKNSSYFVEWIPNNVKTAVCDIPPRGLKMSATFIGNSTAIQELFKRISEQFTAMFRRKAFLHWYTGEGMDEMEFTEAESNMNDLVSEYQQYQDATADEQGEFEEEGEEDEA
- Sequence (P02550 whole entry): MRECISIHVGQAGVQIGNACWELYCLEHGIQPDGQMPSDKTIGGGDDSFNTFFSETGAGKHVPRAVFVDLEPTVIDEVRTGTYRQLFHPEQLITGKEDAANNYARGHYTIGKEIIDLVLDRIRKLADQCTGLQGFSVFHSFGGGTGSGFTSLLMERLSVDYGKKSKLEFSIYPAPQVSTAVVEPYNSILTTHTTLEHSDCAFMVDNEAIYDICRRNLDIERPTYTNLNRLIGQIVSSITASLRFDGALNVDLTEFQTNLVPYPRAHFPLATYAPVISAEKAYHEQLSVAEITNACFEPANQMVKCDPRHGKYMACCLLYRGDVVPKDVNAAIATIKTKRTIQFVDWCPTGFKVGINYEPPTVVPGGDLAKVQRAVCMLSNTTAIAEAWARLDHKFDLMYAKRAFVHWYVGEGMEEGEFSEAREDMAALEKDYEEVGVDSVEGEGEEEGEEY
- Experimental details: Tubulin polymerisation assay (fluorescence-based)
- Format: biochemical
- Study conditions: 10 µM, 37 °C

Below: 2 compounds and their reported RFU in tubulin polymerization assay.
Chemical structure	Observed
CCc1ccc(/C=N/NC(=O)c2[nH]c3ccc(Br)cc3c2-c2ccccc2)[nH]1	~55 arbitrary units
O=C(N/N=C/c1cc(Br)c[nH]1)c1[nH]c2ccc(Br)cc2c1-c1ccccc1	~50 arbitrary units

Could you tell me RFU in tubulin polymerization assay for each of these compounds? They are listed below.
1. CCc1c[nH]c(/C=N/NC(=O)c2[nH]c3ccc(Br)cc3c2-c2ccccc2)c1
2. O=C(N/N=C/c1ccc([N+](=O)[O-])[nH]1)c1[nH]c2ccc(Br)cc2c1-c1ccccc1
3. O=C(N/N=C/c1ccc[nH]1)c1[nH]c2ccc(Br)cc2c1-c1ccccc1
4. O=C(N/N=C/c1cc(Cl)c[nH]1)c1[nH]c2ccc(Br)cc2c1-c1ccccc1

~55 arbitrary units
~50 arbitrary units
~55 arbitrary units
~40 arbitrary units
